MEASUREMENT_TARGET: Nuclear receptor subfamily 1 group I member 3 (Homo sapiens)
PROTOCOL_TEXT: qHTS assay to identify small molecule antagonists of the constitutive androstane receptor (CAR) signaling pathway (AID 1224838);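 also: HepG2 cells stably expressing hCAR with CYP2B6 luciferase reporter stimulated by CITCO; nearly all actives have a fitted effect of over 40% in size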
RECORDED_CONDITIONS: HepG2-CYP2B6-hCAR luciferase, CITCO-stimulated, 24 h; series mostly up to 92.4 µM
Inconclusive results are not listed. Active and inactive are the calls of the source. Calls follow the shape of the dose curve; as a rule, active = well fitted inhibition curve with a large enough effect in the repeat runs; inconclusive = weak or mixed curves, or effect the other way; inactive = no such curve, though single readings can be large or run the other way. Starred links: 1 amine or outer side, 2 acyl side, 3 side chain; linkers in the order of their positions; H or OH if unused. Positions of bridges follow the written chain, without caps; N, C: chain ends. Non-standard residues stand in square brackets, D forms with d. Residues, ends and D or L forms follow the SMILES beside them. Chains are numbered I, II in the order given. Actinocin(9to1) = Cc1c2oc3c(C)ccc(C(=O)[*:1])c3nc-2c(C(=O)[*:2])c(N)c1=O; NMeV = CN[C@H](C(=O)O)C(C)C; Sar = CNCC(=O)O
The categories you may choose from are yes for active, no for inactive

Task item: Could you kindly confirm the outcome this assay logged for Cc1occc(=O)c1OC(=O)C(C)C ?
Reply: no

Task item: Please indicate how the test categorized CCC(CO)(CO)COCC(CC)(CO)CO .
Reply: no

Task item: Which result was noted for this compound in the test: N[C@@H]1CONC1=O
Reply: no

Task item: So what was the verdict on CCN1CCCC1CNC(=O)c1cc(S(=O)(=O)CC)c(N)cc1OC (centres undefined) in this test?
Reply: no

Task item: Given O=C(Cl)c1cccc(C(=O)Cl)c1 , state the outcome it received in this test.
Reply: no

Task item: // param item: Cc1c2oc3c(C)ccc(C(=O)N[C@@H]4C(=O)N[C@H](C(C)C)C(=O)N5CCC[C@H]5C(=O)N(C)CC(=O)N(C)[C@@H](C(C)C)C(=O)O[C@@H]4C)c3nc-2c(C(=O)N[C@@H]2C(=O)N[C@H](C(C)C)C(=O)N3CCC[C@H]3C(=O)N(C)CC(=O)N(C)[C@@H](C(C)C)C(=O)O[C@@H]2C)c(N)c1=O (I: T[dV]P[Sar][NMeV] / II: T[dV]P[Sar][NMeV]; ester I:1-I:C, II:1-II:C; linker I:N-II:N via Actinocin(9to1)) ; yields the recorded call
Reply: yes

Task item: Entry Nc1nc2ccccc2[nH]1 : call = ?
Reply: no

Task item: For CCc1cc(C(C)(C)C)c(O)c(C(C)(C)C)c1 , which call appears in the assay record?
Reply: no

Task item: Which outcome did this test record for the compound c1ccc2n[nH]nc2c1 ?
Reply: no

---

MEASUREMENT_TARGET: Luciferin 4-monooxygenase (Photinus pyralis)
PROTOCOL_TEXT: qHTS assay to identify small molecule inhibitors of firefly luciferase (AID 1224835); also: nearly all actives have a fitted effect of over 25% in size
RECORDED_CONDITIONS: purified P. pyralis luciferase, luminescence inhibition; series mostly up to 115 µM
Inconclusive results are not listed. The source made the active and inactive calls. Calls follow the shape of the dose curve; as a rule, active = well fitted inhibition curve with a large enough effect in the repeat runs; inconclusive = weak or mixed curves; inactive = flat fitted curve, though single readings scatter.
Outcomes you can answer with include only these: true = active, false = inactive

Here's what some known entries look like.
COc1nc(C)nc(Cl)c1NC1=NCCN1 | false
Cc1ccnc2c1NC(=O)c1cccnc1N2C1CC1 | false
O=C(O)c1cccc(C(=O)O)c1 | false
CO[Si](OC)(OC)c1ccccc1 | false

Task item: Answer briefly: the call reported for Cc1c(O)cccc1C(=O)N[C@@H](CSc1ccccc1)[C@H](O)CN1C[C@H]2CCCC[C@H]2C[C@H]1C(=O)NC(C)(C)C in this assay.
Reply: false

Task item: Look up the recorded call for c1ccc2c(c1)-c1cccc3c1c-2cc1ccccc13 in this test.
Reply: true

Task item: What outcome does the record of this test show for CC(=O)N[C@@H](CS)C(=O)O ?
Reply: false

Task item: Recorded test outcome, item Cc1cc(OCCOCC[N+](C)(C)Cc2ccccc2)ccc1C(C)(C)CC(C)(C)C
Reply: false
